# TEST_SUMMARY: Drug metabolism in rat liver microsomes
# Assay type: ADME, Microsome
# TEST_CONDITIONS: read-out: Drug metabolism
REPORTED_ENDPOINT: metabolised (%)
Quick note: give the figure in %, leave out the unit.

Challenge: What value of metabolised has been reported for the following compound? Cc1ccccc1[C@H](CC(=O)O)NC(=O)c1cc(=O)n(-c2ccccc2F)[nH]1
Response given: 10

###

# TEST_SUMMARY: Cmax in Sprague-Dawley rat plasma at 10 mg/kg, po
# Format: ADME, organism-based
# Set-up: dose 10 mg/kg, route oral
REPORTED_ENDPOINT: Cmax (ng/mL)
Hi! Could you send only the number? It should be in ng/mL, unit omitted.

> print(dat)
                            molecule.smiles  reported.endpoint  unit.label  observed.result
1  COc1cc(C(=O)N[C@@H](CC(=O)O)c2ccccc2C)nn1-c1ccccc1F               Cmax       ng/mL            22200
2  Cc1ccccc1[C@H](CC(=O)O)NC(=O)c1cc(OC[C@H](O)C(C)(C)C)n(-c2ccccc2F)n1               Cmax       ng/mL             1360

Challenge: So what does the record say about Cmax for CC(C)(C)[C@@H](O)COc1cc(C(=O)N[C@@H](CC(=O)O)c2ccc(Cl)cc2Cl)nn1-c1ccccc1F ?
Response given: 2670

###

# SYSTEM_TESTED: Lysosomal protective protein (Homo sapiens, UniProt P10619)
# Sequence (P10619 29-326 limits assumed): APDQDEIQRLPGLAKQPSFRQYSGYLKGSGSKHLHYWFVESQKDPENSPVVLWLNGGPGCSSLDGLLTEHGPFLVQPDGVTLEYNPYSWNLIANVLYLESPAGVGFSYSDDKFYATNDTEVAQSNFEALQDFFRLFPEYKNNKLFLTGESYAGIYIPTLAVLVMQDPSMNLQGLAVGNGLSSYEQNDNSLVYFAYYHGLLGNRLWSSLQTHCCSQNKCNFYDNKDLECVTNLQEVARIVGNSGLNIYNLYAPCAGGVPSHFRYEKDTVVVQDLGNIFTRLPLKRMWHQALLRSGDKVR
# Sequence (P10619 327-480 limits assumed): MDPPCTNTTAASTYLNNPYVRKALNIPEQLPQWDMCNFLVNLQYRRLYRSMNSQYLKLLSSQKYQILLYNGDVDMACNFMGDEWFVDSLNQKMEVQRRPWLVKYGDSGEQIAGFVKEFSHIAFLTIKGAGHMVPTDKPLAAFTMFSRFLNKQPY
# TEST_SUMMARY: Inhibition of human recombinant Myc-His10-tagged cathepsin A expressed in baculovirus infected Sf9 cells using BodipyFL labeled bradykinin as substrate incubated for 15 mins prior to substrate addition measured after 15 mins by fluorimetric analysis
pIC50: −log10 of the molar value.
Threshold check on pIC50: at or above 7 gives y, strictly below gives n.

These solved cases illustrate the format of a correct answer.
> print(dat)
                                   compound  label.class
1  COc1ccccc1[C@H](CC(=O)O)NC(=O)c1cc(=O)n(-c2ccccc2F)[nH]1            n
2  O=C(O)CC(NC(=O)c1cc(=O)n(-c2ccccc2F)[nH]1)c1ccccc1 (racemic)            n
3  Cc1ccc([C@H](CC(=O)O)NC(=O)c2cc(=O)n(-c3ccccc3F)[nH]2)cc1            n

Challenge: Hi team, for O=C(O)CC(NC(=O)c1cc(=O)n(-c2ccccc2F)[nH]1)c1ccc(-c2ccc(F)cc2)cc1 (racemic) , is the recorded pIC50 at or above 7?
Response given: y

Challenge: Given the entry COc1c(F)c(C(=O)N[C@@H](CC(=O)O)c2ccccc2C)nn1-c1ccccc1F , answer whether its pIC50 meets or surpasses 7.
Response given: y

Challenge: hey, is pIC50 for this one >= 7? Cc1ccccc1[C@H](CC(=O)O)NC(=O)c1cc(OC[C@@H](O)C(C)(C)C)n(-c2ccccc2F)n1
Response given: y

###

# TEST_SUMMARY: AUC (0 to infinity) in Sprague-Dawley rat heart at 10 mg/kg, po
# Format: ADME, organism-based
# Parameters: time infinity, dose 10 mg/kg, route oral
REPORTED_ENDPOINT: AUC(0-inf)

Known AUC(0-inf) results, listed for orientation:
> print(dat)
                            molecule.smiles  reported.endpoint  observed.result
1  CC(C)(C)[C@@H](O)COc1cc(C(=O)N[C@@H](CC(=O)O)c2ccc(Cl)cc2Cl)nn1-c1ccccc1F         AUC(0-inf)     2600 ng·h/mL
2  Cc1ccccc1[C@H](CC(=O)O)NC(=O)c1cc(OC[C@H](O)C(C)(C)C)n(-c2ccccc2F)n1         AUC(0-inf)     1600 ng·h/mL

In the following, a different molecule is considered.
Challenge: # AUC(0-inf) lookup, item COc1cc(C(=O)N[C@@H](CC(=O)O)c2ccccc2C)nn1-c1ccccc1F
Response given: 16000 ng·h/mL

Data provenance: ChEMBL document CHEMBL2169867
